FYI, the data here is from paper doi:10.1101/2024.08.19.608619.

Target: NaV1.5 (Homo sapiens, UniProt Q14524)
Sequence (Q14524 whole entry): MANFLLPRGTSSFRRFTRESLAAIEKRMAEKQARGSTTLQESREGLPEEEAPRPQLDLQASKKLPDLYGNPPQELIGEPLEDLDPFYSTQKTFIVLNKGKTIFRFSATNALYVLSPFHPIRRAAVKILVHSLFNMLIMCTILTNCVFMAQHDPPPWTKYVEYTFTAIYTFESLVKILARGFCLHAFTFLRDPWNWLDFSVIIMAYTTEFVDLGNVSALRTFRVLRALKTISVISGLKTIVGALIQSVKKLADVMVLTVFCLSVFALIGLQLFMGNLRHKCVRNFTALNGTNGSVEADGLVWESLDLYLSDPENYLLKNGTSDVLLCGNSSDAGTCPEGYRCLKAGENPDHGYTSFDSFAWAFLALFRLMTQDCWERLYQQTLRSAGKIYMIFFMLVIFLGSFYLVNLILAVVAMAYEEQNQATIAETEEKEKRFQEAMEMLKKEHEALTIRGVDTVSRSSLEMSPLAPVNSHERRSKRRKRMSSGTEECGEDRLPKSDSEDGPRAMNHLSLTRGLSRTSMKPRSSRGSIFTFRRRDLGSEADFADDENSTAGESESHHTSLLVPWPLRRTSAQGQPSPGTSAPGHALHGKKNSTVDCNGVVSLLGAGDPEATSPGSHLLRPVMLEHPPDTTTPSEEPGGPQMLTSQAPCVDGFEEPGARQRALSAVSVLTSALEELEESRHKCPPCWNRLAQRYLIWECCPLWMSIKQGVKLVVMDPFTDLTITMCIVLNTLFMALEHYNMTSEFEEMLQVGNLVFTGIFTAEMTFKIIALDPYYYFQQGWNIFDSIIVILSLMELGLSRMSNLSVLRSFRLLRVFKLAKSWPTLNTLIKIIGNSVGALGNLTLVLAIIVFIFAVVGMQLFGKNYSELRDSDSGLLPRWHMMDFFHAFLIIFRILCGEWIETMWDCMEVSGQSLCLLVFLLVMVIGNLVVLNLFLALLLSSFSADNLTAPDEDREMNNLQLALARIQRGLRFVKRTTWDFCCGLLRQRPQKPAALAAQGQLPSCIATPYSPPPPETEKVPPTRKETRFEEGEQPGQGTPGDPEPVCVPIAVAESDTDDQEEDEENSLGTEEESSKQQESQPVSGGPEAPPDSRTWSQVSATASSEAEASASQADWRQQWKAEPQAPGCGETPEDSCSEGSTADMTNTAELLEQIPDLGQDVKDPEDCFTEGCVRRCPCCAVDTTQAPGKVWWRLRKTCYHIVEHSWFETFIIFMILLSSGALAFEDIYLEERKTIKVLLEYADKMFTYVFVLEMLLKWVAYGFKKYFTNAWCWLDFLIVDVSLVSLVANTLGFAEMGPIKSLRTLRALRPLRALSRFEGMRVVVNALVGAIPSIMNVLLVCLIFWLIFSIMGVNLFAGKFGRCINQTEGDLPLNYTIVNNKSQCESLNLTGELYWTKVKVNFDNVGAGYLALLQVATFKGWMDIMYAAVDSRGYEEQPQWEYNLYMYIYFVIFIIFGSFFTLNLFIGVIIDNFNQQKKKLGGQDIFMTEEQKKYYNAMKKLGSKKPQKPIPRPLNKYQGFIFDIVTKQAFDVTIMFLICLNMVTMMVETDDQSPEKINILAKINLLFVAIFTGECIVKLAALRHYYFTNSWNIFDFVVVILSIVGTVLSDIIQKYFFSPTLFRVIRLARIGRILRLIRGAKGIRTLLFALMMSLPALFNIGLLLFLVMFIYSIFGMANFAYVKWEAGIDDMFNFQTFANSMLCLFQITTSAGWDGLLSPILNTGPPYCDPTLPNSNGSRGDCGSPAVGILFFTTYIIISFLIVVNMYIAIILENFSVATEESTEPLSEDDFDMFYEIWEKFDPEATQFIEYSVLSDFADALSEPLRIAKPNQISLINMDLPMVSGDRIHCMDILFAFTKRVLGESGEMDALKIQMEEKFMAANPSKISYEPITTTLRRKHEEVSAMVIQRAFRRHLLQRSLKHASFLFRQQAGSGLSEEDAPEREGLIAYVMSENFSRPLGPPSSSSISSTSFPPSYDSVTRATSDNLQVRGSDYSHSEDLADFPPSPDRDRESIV
Experiment: In vitro NaV1.5 cardiotoxicity
Conditions: NaV1.5, rest state; top test concentration 30 uM
We use 20% as the dividing line for perc_inhibition_rest_state: on or above the line is Satisfied, below is Not satisfied.

>>> df
                                   molecule                      system_under_test  discrete_label
0  C[C@H](C(=O)O)[C@@H](NC(=O)c1ncnc2[nH]ccc12)c1ccc(Br)cc1 [ASAP-0014722]  NaV1.5 (Homo sapiens, UniProt Q14524)   Not satisfied
1  Cn1ncc(-c2cc3c(N[C@@H](c4ccc5c(n4)OCCO5)C(C)(C)C)ncnc3[nH]2)c1C#N [ASAP-0011221]  NaV1.5 (Homo sapiens, UniProt Q14524)   Not satisfied
2  CC(C)[C@@H](Nc1ncnc2[nH]c(-c3cnn(C)c3C#N)cc12)c1ccc2c(n1)OCCO2 [ASAP-0010716]  NaV1.5 (Homo sapiens, UniProt Q14524)       Satisfied
3  CNCc1cc(-c2cc3c(N[C@@H](c4ccc5c(c4)S(=O)(=O)CCC5)C(C)C)ncnc3[nH]2)co1 [ASAP-0011176]  NaV1.5 (Homo sapiens, UniProt Q14524)   Not satisfied
4  COc1ccc([C@H](Cc2nnn[nH]2)NC(=O)c2ncnc3[nH]ccc23)cc1 [ASAP-0015381]  NaV1.5 (Homo sapiens, UniProt Q14524)   Not satisfied
5  CC(C)[C@H](Nc1ncnc2[nH]ccc12)c1ccc2c(c1)S(=O)(=O)CCC2 [ASAP-0008674]  NaV1.5 (Homo sapiens, UniProt Q14524)   Not satisfied
6  CC(C)[C@H](Nc1ncnc2[nH]c(-c3cnn(C)c3C#N)cc12)c1ccc2c(n1)OCCO2 [ASAP-0010715]  NaV1.5 (Homo sapiens, UniProt Q14524)       Satisfied

====

Test: in vitro
Conditions: human, hela-ace2 cells, 50.0
Recorded metric: CC50 at 24 h

In [3]: df
Out[3]:
                                   compound  recorded_metric  value_measured
0  CC(C)[C@@H](Nc1ncnc2[nH]c(-c3cnn(C)c3)cc12)c1ccc2c(c1)S(=O)(=O)CCC2 (single isomer, unassigned)     CC50 at 24 h         > 20 µM
1  CC(C)[C@H](Nc1ncnc2[nH]c(-c3cnn(C)c3C#N)cc12)c1ccc2c(c1)NC(=O)CO2 (single isomer, unassigned)     CC50 at 24 h         > 20 µM
2  CC(C)[C@@H](Nc1ncnc2[nH]c(-c3cncc(S(C)(=O)=O)c3)cc12)c1ccc2c(c1)S(=O)(=O)CCC2     CC50 at 24 h         > 20 µM
3  CC(C)[C@H](Nc1ncnc2[nH]c(-c3cnn(C)c3)cc12)c1ccc2c(c1)S(=O)(=O)CCC2 (single isomer, unassigned)     CC50 at 24 h         > 20 µM
4  C[C@H](C(=O)O)[C@@H](NC(=O)c1ncnc2[nH]ccc12)c1ccc(Br)cc1     CC50 at 24 h         > 20 µM
5  CC(C)[C@@H](Nc1ncnc2[nH]c(-c3cnn(C)c3C#N)cc12)c1ccc2c(n1)NC(=O)CO2 (single isomer, unassigned)     CC50 at 24 h         > 20 µM
